experiment: Drug recovery in Sprague-Dawley rat whole blood at 64 uM after 2 hrs by HPLC analysis; type: ADME, tissue-based; conditions: read-out: Drug recovery

| Molecule | remaining at 2 h, 64 µM |
| --- | --- |
| Fc1ccc(CSSSCc2ccc(F)cc2)cc1 | 2.54% |

* * *

assay: Drug recovery in Sprague-Dawley rat plasma at 64 uM after 2 hrs by HPLC analysis; assay type: ADME, cell-free; settings: read-out: Drug recovery

| Molecule | Reading unit | remaining at 2 h, 64 µM |
| --- | --- | --- |
| Fc1ccc(CSSSCc2ccc(F)cc2)cc1 | % | 13 |

* * *

experiment: Half life in Sprague-Dawley rat diluted RBC at 25 uM by HPLC analysis; assay type: ADME, cell-based, Erythrocyte; conditions: diluted red blood cells (RBC)
Assay readout: half-life at 25 µM (s)

| Molecule | Reading unit | Reported measurement |
| --- | --- | --- |
| Fc1ccc(CSSSCc2ccc(F)cc2)cc1 | s | 24 |

* * *

test: Half life in Sprague-Dawley rat diluted RBC at 1 uM by HPLC analysis; type: ADME, cell-based, Erythrocyte; settings: diluted red blood cells (RBC)

| Molecule | half-life at 1 µM |
| --- | --- |
| Fc1ccc(CSSSCc2ccc(F)cc2)cc1 | < 30 s |
